assay: xn = mol fraction of the nth substance listed, in the solute-free solvent; conditions: 303.15 K; x2 = 0.5454
solubility (g/100 g solution) by entry:

Look over these answered cases.
O=c1cc(CBr)c2ccccc2[nH]1 + CCCO + O = 0.173
CC(C)C(=O)Nc1ccc([N+](=O)[O-])c(C(F)(F)F)c1 + CC(C)O + O = 22.3
O=c1cc(CBr)c2ccccc2[nH]1 + CC(C)O + O = 0.13

-- ask Give solubility (g/100 g solution) for O=C1C=CC(=O)N1c1ccccc1Br + CC(C)O + O
-- reply 9.39

-- ask Give solubility (g/100 g solution) for Nc1ncc(Br)nc1Br + CC(C)O + O
-- reply 0.398

====

assay: xn = mol fraction of the nth substance listed, in the solute-free solvent; settings: 283.15 K; x2 = 0.7788
solubility (g/100 g solution) by entry:
// keep it numeric: no unit symbol after the value

Look over these answered cases.
Nc1ncc(Br)nc1Br + CCO + O = 0.489
Nc1cc(-c2ccncc2)c[nH]c1=O + CCO + O = 0.0125
O=C1C=CC(=O)N1c1ccccc1Br + CCO + O = 6.85
O=c1cc(CBr)c2ccccc2[nH]1 + CCO + O = 0.108

With those in mind, consider the next compound.
-- ask Give solubility (g/100 g solution) for CC(C)C(=O)Nc1ccc([N+](=O)[O-])c(C(F)(F)F)c1 + CCO + O
-- reply 15.9

====

test: xn = mol fraction of the nth substance listed, in the solute-free solvent; settings: 303.15 K; x2 = 0.4
solubility (g/100 g solution) by entry:
// keep it numeric: no unit symbol after the value

Look over these answered cases.
CC(C)C(=O)Nc1ccc([N+](=O)[O-])c(C(F)(F)F)c1 + CC(C)=O + CC(C)O = 55.7
Cl.NC1CCSC1=O (centres undefined) + CO + CC#N = 2.35

-- ask Give solubility (g/100 g solution) for CC(C)C(=O)Nc1ccc([N+](=O)[O-])c(C(F)(F)F)c1 + C1CCOC1 + CC(C)O
-- reply 56.9

-- ask Give solubility (g/100 g solution) for CC(C)C(=O)Nc1ccc([N+](=O)[O-])c(C(F)(F)F)c1 + CCOC(C)=O + CC(C)O
-- reply 49

====

solubility (g/100 g solution) by entry:
assay: xn = mol fraction of the nth substance listed, in the solute-free solvent; settings: 308.15 K; x2 = 0.2812
// keep it numeric: no unit symbol after the value

Look over these answered cases.
Nc1cc(-c2ccncc2)c[nH]c1=O + CCO + O = 0.0125
O=C1C=CC(=O)N1c1ccccc1Br + CCO + O = 10.5
CC(C)C(=O)Nc1ccc([N+](=O)[O-])c(C(F)(F)F)c1 + CCO + O = 2.77
O=c1cc(CBr)c2ccccc2[nH]1 + CCO + O = 0.148

-- ask Give solubility (g/100 g solution) for Nc1ncc(Br)nc1Br + CCO + O
-- reply 0.493

====

assay: xn = mol fraction of the nth substance listed, in the solute-free solvent; details: 313.15 K; x2 = 0.1139
solubility (g/100 g solution) by entry:
// keep it numeric: no unit symbol after the value

O=c1cc(CBr)c2ccccc2[nH]1 + CCCO + O = 0.138

-- ask Give solubility (g/100 g solution) for O=C1C=CC(=O)N1c1ccccc1Br + CC(C)O + O
-- reply 5.84

-- ask Give solubility (g/100 g solution) for O=c1cc(CBr)c2ccccc2[nH]1 + CC(C)O + O
-- reply 0.118

-- ask Give solubility (g/100 g solution) for Nc1ncc(Br)nc1Br + CC(C)O + O
-- reply 0.183

-- ask Give solubility (g/100 g solution) for CC(C)C(=O)Nc1ccc([N+](=O)[O-])c(C(F)(F)F)c1 + CC(C)O + O
-- reply 0.598

Numbers sourced from the CheMixHub drug solubility set.
